Where do the numbers come from? From ChEMBL document CHEMBL1201862.

Recorded GI50, one value per entry.
System: MOLT-4
Assay: NCI tumour cell line growth inhibition, 48 h
The source made the active and inactive calls. No stated cut-off is given here; in the data, active = GI50 up to about 1.1 µM and inactive = higher.

Worked examples follow.
{"columns": ["compound", "result"],
 "data": [
  ["Sc1nnc(COc2ccc(Cl)cc2)n1-c1ccccc1", "88.3 µM (inactive)"],
  ["CC1=NN(C(=O)c2ccc([N+](=O)[O-])cc2)C(=O)C1/N=N/c1ccccc1C(=O)O (stereo unspecified)", "> 100 µM (inactive)"],
  ["CC(C)OC(=O)Nc1c([N+](=O)[O-])cc(C(F)(F)F)cc1[N+](=O)[O-]", "> 46.5 µM (inactive)"]
]}

Test system MOLT-4; read-out GI50; what value for OCc1cn(Cc2ccccc2)c2ccccc12 ?
> 47.3 µM (inactive)

Test system MOLT-4; read-out GI50; what value for C#CCn1ncc2c(SCc3ccccc3)ncnc21 ?
11.8 µM (inactive)

Test system MOLT-4; read-out GI50; what value for Cc1cccc(NC(=O)/C=C/c2ccc([N+](=O)[O-])cc2)c1 ?
> 36.4 µM (inactive)

Test system MOLT-4; read-out GI50; what value for N#Cc1nc(-c2cnccn2)oc1N ?
> 100 µM (inactive)

Test system MOLT-4; read-out GI50; what value for CCCCCCC(=O)C/C(=N/NC(N)=S)C(=O)NC1C2CC3CC(C2)CC1C3 (stereo unspecified) ?
> 100 µM (inactive)

Test system MOLT-4; read-out GI50; what value for COC(=O)[C@H](CCSC)NC(=O)N[C@H](C)c1ccccc1 ?
> 100 µM (inactive)

Test system MOLT-4; read-out GI50; what value for C=CCOC(=O)CC[C@H](NC(=O)[C@@H](CCC(F)(F)F)Cc1ccc(O)cc1)C(=O)OCC=C ?
27.7 µM (inactive)

Test system MOLT-4; read-out GI50; what value for CN(C)CCc1ccnc2nc(-c3ccc4ccccc4c3)cn12 ?
35.2 µM (inactive)

----------
System: COLO 205
Experiment: NCI tumour cell line growth inhibition, 48 h
Calls of active or inactive are those of the source. Cut-off read from the data, not from the text of the source: active = GI50 up to about 1.1 µM and inactive = higher.
Recorded GI50, one value per entry.

Worked examples follow.
{"columns": ["compound", "GI50"],
 "data": [
  ["CC(=O)O[C@@H]1C[C@@]2(C)[C@@H]3CC=C4[C@@H](C[C@H](O)C(=O)C4(C)C)[C@]3(C)C(=O)C[C@]2(C)[C@H]1[C@@](C)(O)C(=O)/C=C/C(C)(C)OC(C)=O", "1.5 µM (inactive)"],
  ["Cc1ccc(-c2cc(-c3ccco3)nc(N)n2)o1", "> 100 µM (inactive)"],
  ["CCOC(=O)C1=C(C)N(Cc2ccc(Cl)cc2Cl)C2(O)C=CC(=O)C3C(=O)N(c4ccccc4)C(=O)C132 (centres undefined)", "1.7 µM (inactive)"]
]}

Next, consider the following compound.
Given the compound NNC(=O)c1c(-c2cccnc2)cnc2ccccc12 , what is its reported GI50?
> 100 µM (inactive)

----------
Recorded GI50, one value per entry.
Test system: M14
Assay: NCI tumour cell line growth inhibition, 48 h
Calls of active or inactive are those of the source. No stated cut-off is given here; in the data, active = GI50 up to about 1.1 µM and inactive = higher.

{"columns": ["compound", "result"],
 "data": [
  ["CC1=CC(=O)/C(=C/n2c(=S)[nH]c3ccc([N+](=O)[O-])cc32)C(=O)O1", "> 100 µM (inactive)"],
  ["CN1C(=O)c2ccccc2OC12C=Cc1ccc(O)cc1O2 (stereo not drawn)", "12.7 µM (inactive)"],
  ["CCCCCCCCCCCC1NC(N)=NC(CCCO)=C1C(=O)OC (stereo not drawn)", "1.93 µM (inactive)"],
  ["CCCCC1(NN=C2CCCCC2)C(=O)N(c2ccccc2)N(c2ccccc2)C1=O", "> 100 µM (inactive)"],
  ["CCc1cc(=O)n(/C(C)=C/c2ccccc2)n1C", "> 100 µM (inactive)"]
]}

Given the compound CCCCCC/C=C1\CCC(CN2CCOCC2)C1=O (stereo not drawn) , what is its reported GI50?
14.6 µM (inactive)

Given the compound Cn1cnc([N+](=O)[O-])c1Sc1nc2ccccc2o1 , what is its reported GI50?
6.35 µM (inactive)

Given the compound O=c1[nH]cc(/N=C/c2cc(Cl)cc(Cl)c2O)c(=O)[nH]1 , what is its reported GI50?
21 µM (inactive)

----------
Tested on: K562
Experiment: NCI tumour cell line growth inhibition, 48 h
Activity calls are given as the source filed them. Cut-off read from the data, not from the text of the source: active = GI50 up to about 1.1 µM and inactive = higher.
Outcomes you can answer with include only these: active, inactive

{"columns": ["molecule", "experimentalSystem", "labelValue"],
 "data": [
  ["CN(C(=O)c1ccc(Cl)cc1)C(=S)N1CCN(c2ccccc2)CC1", "K562", "inactive"],
  ["COc1cc2c(cc1OC)-c1cc3ccccc3c(=O)n1CCC2", "K562", "inactive"],
  ["COc1ccc(C2=Nn3c(nc4sc(-c5ccccc5)cc4c3=O)SC2)cc1", "K562", "inactive"],
  ["CCCCSC(=CC(=O)c1cccc(C(=O)C=C(SCCCC)SCCCC)n1)SCCCC", "K562", "inactive"],
  ["CCn1c2ccccc2c2cc(NC(=O)c3c(C)[nH]c(=O)[nH]c3=S)ccc21", "K562", "inactive"]
]}

Hi, do you know how C[C@@]1(CO)[C@H](O)CC[C@@]2(C)[C@H]1CC[C@H]1C[C@@H]3C[C@@]12CC[C@@]3(O)COC(=O)CN came out in this test?
inactive

Hi, do you know how Cc1ccc(S(=O)(=O)N2CCN(C=S)CC2)cc1 came out in this test?
inactive

Hi, do you know how COc1ccc2c(c1)C(=O)CCc1cc(OC)c(OC)c(OC)c1-2 came out in this test?
active

Hi, do you know how CC(C)(C)OC(=O)NC(Cc1ccc(OCc2ccccc2)cn1)C(=O)N1CCSCC1 (stereo not given) came out in this test?
inactive

Hi, do you know how CCOC(=O)c1c(C)n(-c2ccc(C)cc2)c2c1cc(O)c1[nH]c3c(c12)CCCC3 came out in this test?
inactive

----------
Recorded GI50, one value per entry.
System: HCT-116
Experiment: NCI tumour cell line growth inhibition, 48 h
The source made the active and inactive calls. No stated cut-off is given here; in the data, active = GI50 up to about 1.1 µM and inactive = higher.

Worked examples follow.
{"columns": ["molecule", "GI50"],
 "data": [
  ["Oc1cccc2ccc(Br)nc12", "> 100 µM (inactive)"],
  ["CN1CCN([C@H]2C[C@H]3[C@@H]4CC=C5C[C@@H](O)CC[C@]5(C)[C@H]4CC[C@]3(C)C2=O)CC1", "> 100 µM (inactive)"],
  ["CCOC(=O)C(SCCO)C(C(=O)OCC)n1ccc(N)nc1=O (stereo unspecified)", "> 100 µM (inactive)"],
  ["CCCSc1ccc2[nH]c(N3C(=O)/C(=C/c4ccco4)N=C3c3ccccc3)cc2c1", "21.8 µM (inactive)"],
  ["O=c1[nH]c(=O)n(C2OC(CO)C(O)C2O)cc1OCCc1ccccc1 (stereo unspecified)", "> 100 µM (inactive)"]
]}

Given the molecule CC(C)CCCC(C)[C@H]1CCC2[C@@H]3CCC4Cc5nc6c(nc5C[C@]4(C)C3CC[C@@]21C)CC1CC[C@@H]2C(CC[C@@]3(C)C2CC[C@@H]3C(C)CCCC(C)C)[C@@]1(C)C6 (stereo partly specified) , what is its reported GI50?
> 100 µM (inactive)

Given the molecule Cc1ccc(S(=O)(=O)N2CCN(C=S)CC2)cc1 , what is its reported GI50?
> 100 µM (inactive)

Given the molecule NNC(=O)C(O)C(O)C(=O)NN (stereo unspecified) , what is its reported GI50?
73.3 µM (inactive)

----------
System: MDA-MB-435
Experiment: NCI tumour cell line growth inhibition, 48 h
The source made the active and inactive calls. Cut-off read from the data, not from the text of the source: active = GI50 up to about 1.1 µM and inactive = higher.
Outcomes you can answer with include only these: class 1 for active, class 0 for inactive

{"columns": ["molecule", "labelValue"],
 "data": [
  ["CC(=O)OC(C)c1cc2c(s1)C(=O)c1scc(C(C)OC(C)=O)c1C2=O (centres undefined)", "class 1"],
  ["O=C1CC(c2ccccc2)n2c(nc3ccccc32)N1 (centres undefined)", "class 0"],
  ["COc1cc(S(=O)(=O)Nc2ccc(-c3csc(N4C(=O)CSC4c4cccc(Oc5ccccc5)c4)n3)cc2)ccc1Cl (centres undefined)", "class 0"],
  ["C=C1c2c(n(S(=O)(=O)c3ccccc3)c3ccccc23)[C@@]2(C(=O)OC)CC3C=CC2N1C3", "class 0"],
  ["CC(C)n1c(=O)c2nn3c(=O)n(C(C)C)c(=O)c3nn2c1=O", "class 0"],
  ["COC(=O)[C@]12CC[C@H]3CN(C(=O)OCc4ccccc4)[C@H]([C@H]31)[C@H](C(=O)OCC[Si](C)(C)C)N2S(=O)(=O)c1ccc(C)cc1", "class 0"],
  ["COc1cc2ccnc3c2c(c1OC)N(C)C=C3", "class 0"],
  ["CCCCCCC(O)C(O)CCC(O)C1CCC(CCCCC(O)CC2=CC(C)OC2=O)O1 (centres undefined) [ACETOGENINS]", "class 0"],
  ["C=C1C[C@@H](O)[C@@H](Br)C(C)(C)[C@@]12C=CC(O)(CBr)CC2 (some centres undefined)", "class 0"],
  ["COc1ccc2c(c1)C(=O)CCc1cc(OC)c(OC)c(OC)c1-2", "class 1"]
]}

Hi, do you know how COc1ccc(-c2nc3ncccn3c2-c2ccc(SC)cc2)cc1 came out in this test?
class 1

Hi, do you know how COc1cc2c3cc1Oc1c(OC)c(OC)cc4c1C(Cc1ccc(cc1)Oc1cc(ccc1O)CC3N(C)CC2)N(C)CC4 (centres undefined) came out in this test?
class 0

Hi, do you know how O=C(O)c1cc(N(Cc2ccccc2O)Cc2cc(O)ccc2O)ccc1O [LAVENDUSTIN A] came out in this test?
class 0

Hi, do you know how COc1cc(/C=C2\N=C(c3ccccc3)N(c3cc4cc(Sc5ccccc5)ccc4[nH]3)C2=O)ccc1O came out in this test?
class 0

Hi, do you know how O=c1[nH]c(=O)n(C2OC(CO)C(O)C2O)cc1OCCc1ccccc1 (centres undefined) came out in this test?
class 0

Hi, do you know how Oc1ccc(-c2nc(-c3ccc4ccccc4n3)c(-c3ccc(F)cc3)[nH]2)cc1 came out in this test?
class 0

Hi, do you know how N#Cc1cc(C#N)c(N)nc1N came out in this test?
class 0

Hi, do you know how C=CCN1CN(C2CCCCC2)CSC1=S came out in this test?
class 1

Hi, do you know how Cn1nc(/C=C\C(=O)N2CC(CCl)c3c2cc(N)c2ccccc32)cc1/C=C/C(=O)N1CC(CCl)c2c1cc(N)c1ccccc21 (centres undefined) came out in this test?
class 1
